Test: reversal of MRP1-mediated doxorubicin resistance, pilot screen, H69AR cells, doxorubicin co-treatment (AID 601)
Conditions: H69AR cells + 2 uM doxorubicin, CellTiter-Glo, 72 h; at 10 µM; stronger effect = higher value
The reader will find reported differential viability (reversal) values listed item by item below.
experimental.readout: differential viability (reversal) (%)

INSERT INTO results (molecule, experimental_readout, scale_unit, experimental_value) VALUES
  ('CCn1c(C)nc2cc(C(=O)OC(C(F)(F)C(F)F)C(F)(F)C(F)F)ccc21', 'differential viability (reversal)', '%', 0.115),
  ('COc1ccc(OCCN2C(=O)NC(C)(c3ccc(C)cc3)C2=O)cc1 (stereo unspecified)', 'differential viability (reversal)', '%', -3.77),
  ('O=C(O)c1ccc(S(=O)(=O)Cc2ccccc2)cc1', 'differential viability (reversal)', '%', -7.88),
  ('O=C(NCCCN1CCCC1=O)c1cccnc1', 'differential viability (reversal)', '%', 0.48),
  ('CCCCC(=O)O[C@H]1CC[C@H]2[C@@H]3CCc4cc(O)ccc4[C@H]3CC[C@]12C', 'differential viability (reversal)', '%', 13.5),
  ('O=C(Nc1ccccc1)N(Cc1cccnc1)Cc1ccco1', 'differential viability (reversal)', '%', 12.7),
  ('COc1ccc(N2CCN(C(=O)CSc3nnc(Cn4nnc5ccccc54)n3C)CC2)cc1', 'differential viability (reversal)', '%', 11.4),
  ('CCCC(=O)Nc1ccccc1NC(=O)CCC', 'differential viability (reversal)', '%', 7.25),
  ('Cc1cc(NS(=O)(=O)c2ccc(NC(=O)C(C)N3C(=O)c4ccccc4C3=O)cc2)nc(C)n1 (stereo unspecified)', 'differential viability (reversal)', '%', 5.72),
  ('O=C1c2ccccc2-c2nc3ncnn3c(-c3ccccc3)c21', 'differential viability (reversal)', '%', 8.68),
  ('O=C(Cc1cccs1)NCc1ccc(F)cc1', 'differential viability (reversal)', '%', 5.21);

These measurements were taken from PubChem BioAssay.
